- measurementNotes: Brain tissue pharmacokinetics of G–A after a single oral dose in ICR mice (HPLC, PKSolver)
- Assay type: in vivo
- recordedConditions: mouse, brain, 1440 min (24 h) after single oral 200 mg/kg, mean ± S.E.M., n = 8
valueType: concentration at 1440 min
The number alone won't do; follow it with the unit.

Would you kindly share the measured concentration at 1440 min for COC(=O)[C@@]12CC[C@]3(C)C([C@H](O)[C@H](O)[C@@]4([C@@H](C)O)COC(=O)C=C[C@H]43)[C@@]1(C)CC[C@@]1(C)CC=C(C)C[C@]12O (stereo partly shown) [G–A, galphimine-A] ? 320 ng/mL

----------
- measurementNotes: Brain tissue pharmacokinetics of G–A after a single oral dose in ICR mice (HPLC, PKSolver)
- Type: in vivo
- recordedConditions: mouse, brain tissue, oral 200 mg/kg, n = 8
valueType: CL/F (mL/min/kg)
State just the number; it will be interpreted in mL/min/kg.

// lookup CL/F for COC(=O)[C@@]12CC[C@]3(C)C([C@H](O)[C@H](O)[C@@]4([C@@H](C)O)COC(=O)C=C[C@H]43)[C@@]1(C)CC[C@@]1(C)CC=C(C)C[C@]12O (stereo partly shown) 57

----------
- measurementNotes: Plasma pharmacokinetics of G–A after a single oral dose in ICR mice (HPLC, PKSolver)
- Assay type: in vivo
- recordedConditions: ICR, mouse, plasma, po, 200 mg/kg, plasma, one-compartment model, oral 200 mg/kg, read-out: k10 (elimination rate constant) (converted)
valueType: k el (s⁻¹)
Return type: number; implicit unit s⁻¹.

State the recorded k el for this entry: COC(=O)[C@@]12CC[C@]3(C)C([C@H](O)[C@H](O)[C@@]4([C@@H](C)O)COC(=O)C=C[C@H]43)[C@@]1(C)CC[C@@]1(C)CC=C(C)C[C@]12O (stereo partly shown) 2.67e-05

----------
- measurementNotes: Plasma pharmacokinetics of G–A after a single oral dose in ICR mice (HPLC, PKSolver)
- Format: in vivo
- recordedConditions: ICR, mouse, plasma, po, 200 mg/kg, plasma, two-compartment model, oral 200 mg/kg, read-out: MRT (mean residence time) (converted)
valueType: MRT (h)
Form entry: value (h) — number only.

Tell me the measured MRT of COC(=O)[C@@]12CC[C@]3(C)C([C@H](O)[C@H](O)[C@@]4([C@@H](C)O)COC(=O)C=C[C@H]43)[C@@]1(C)CC[C@@]1(C)CC=C(C)C[C@]12O (stereo partly shown) , please. 10.3

----------
- measurementNotes: Plasma pharmacokinetics of G–A after a single oral dose in ICR mice (HPLC, PKSolver)
- Assay type: in vivo
- recordedConditions: mouse, plasma, 15 min after single oral 200 mg/kg, mean ± S.E.M., n = 8
valueType: concentration at 15 min (ng/mL)
Output spec: scalar in ng/mL, unitless text.

# input compound: COC(=O)[C@@]12CC[C@]3(C)C([C@H](O)[C@H](O)[C@@]4([C@@H](C)O)COC(=O)C=C[C@H]43)[C@@]1(C)CC[C@@]1(C)CC=C(C)C[C@]12O (stereo partly shown) ; wanted: its concentration at 15 min 2790

----------
- measurementNotes: Brain tissue pharmacokinetics of G–A after a single oral dose in ICR mice (HPLC, PKSolver)
- Assay type: in vivo
- recordedConditions: mouse, brain, 15 min after single oral 200 mg/kg, mean ± S.E.M., n = 8
valueType: concentration at 15 min
# output: number + unit

Using the record for COC(=O)[C@@]12CC[C@]3(C)C([C@H](O)[C@H](O)[C@@]4([C@@H](C)O)COC(=O)C=C[C@H]43)[C@@]1(C)CC[C@@]1(C)CC=C(C)C[C@]12O (stereo partly shown) [G–A, galphimine-A] , report its concentration at 15 min. 1480 ng/mL

----------
- measurementNotes: Plasma pharmacokinetics of G–A after a single oral dose in ICR mice (HPLC, PKSolver)
- Type: in vivo
- recordedConditions: ICR, mouse, plasma, po, 200 mg/kg, two-compartment model, oral 200 mg/kg
valueType: Cmax

Query (compound): COC(=O)[C@@]12CC[C@]3(C)C([C@H](O)[C@H](O)[C@@]4([C@@H](C)O)COC(=O)C=C[C@H]43)[C@@]1(C)CC[C@@]1(C)CC=C(C)C[C@]12O (stereo partly shown) [G–A, galphimine-A] ; field requested: Cmax 3420 ng/mL

----------
- measurementNotes: Plasma pharmacokinetics of G–A after a single oral dose in ICR mice (HPLC, PKSolver)
- Format: in vivo
- recordedConditions: ICR, mouse, plasma, po, 200 mg/kg, one-compartment model, oral 200 mg/kg
valueType: Cmax
Give the figure together with its unit, number first.

Could you tell me which Cmax is on file for COC(=O)[C@@]12CC[C@]3(C)C([C@H](O)[C@H](O)[C@@]4([C@@H](C)O)COC(=O)C=C[C@H]43)[C@@]1(C)CC[C@@]1(C)CC=C(C)C[C@]12O (stereo partly shown) ? 3330 ng/mL
